From: patent US5776929A

Target: CCK-B receptor (Mus musculus)
Construct: crude membrane specimen from mouse cerebral cortex; from tissue; host or cells: cerebral cortex of male ddY mice, crude membranes
Sequence (P56481 1-453): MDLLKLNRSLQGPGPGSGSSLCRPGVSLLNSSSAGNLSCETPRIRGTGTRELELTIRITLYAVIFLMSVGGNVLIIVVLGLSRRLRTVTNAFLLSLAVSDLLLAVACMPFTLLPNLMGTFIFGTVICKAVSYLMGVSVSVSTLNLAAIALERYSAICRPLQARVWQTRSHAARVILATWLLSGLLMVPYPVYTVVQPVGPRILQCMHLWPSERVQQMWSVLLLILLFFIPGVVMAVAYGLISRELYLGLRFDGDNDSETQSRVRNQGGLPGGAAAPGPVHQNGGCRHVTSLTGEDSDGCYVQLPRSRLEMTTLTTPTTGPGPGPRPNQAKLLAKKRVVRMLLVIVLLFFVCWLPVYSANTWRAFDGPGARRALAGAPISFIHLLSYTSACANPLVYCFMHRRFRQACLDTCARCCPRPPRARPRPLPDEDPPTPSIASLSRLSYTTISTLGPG
Assay: CCK-B receptor antagonism, displacement of [3H]CCK-8, cerebral cortex crude membrane
Format: binding, mouse (male ddY)
quantity.kind: IC50 (nM)
Only the number, expressed in nM, is required.

If you can, please state the reported IC50 value of COC(=O)CCCNC(=O)OCc1cccc(NC(=O)NC2C(=O)N(CC(=O)N3CCSC3)c3ccccc3N(CC(=O)N3CCSC3)C2=O)c1 [Compound 9b] .
120
